test system: HCV pseudoparticles; experiment: HCV pseudoparticle infection assay (luciferase reporter, Huh7 cells); format: cell-based, HCV (genotype 1b E1 and E2 envelope); settings: Hepatitis C virus, genotype 1b, Huh-7, 48 h, HCV pseudoparticles (genotype 1b), luciferase activity 2 days after infection, class
recorded_metric: EC50

- structure_string: "O=C(NCC1(C(=O)NS(=O)(=O)C2CC2)CC1)c1ccc(Nc2nc(NC3(c4ccc(Cl)cc4)CC3)nc(OCC(F)(F)F)n2)cc1"
  target: "HCV pseudoparticles"
  assay_value: "0.5 to 100 nM"
- structure_string: "CCS(=O)(=O)N1CCN(c2nc(Nc3ccc(C(=O)NS(=O)(=O)C4(CN(C)C)CC4)cc3)nc(OCC(F)(F)F)n2)CC1"
  target: "HCV pseudoparticles"
  assay_value: "1000 to 5000 nM"
- structure_string: "O=C(CCNC(=O)c1ccc(Nc2nc(NC3(c4ccc(Cl)cc4)CC3)nc(OCC(F)(F)F)n2)cc1)NS(=O)(=O)C1CC1"
  target: "HCV pseudoparticles"
  assay_value: "0.5 to 100 nM"
- structure_string: "CCN(CC)CC1(C(=O)NS(=O)(=O)c2ccc(Nc3nc(NC4(c5ccc(Cl)cc5)CC4)nc(OCC(F)(F)F)n3)cc2)CC1"
  target: "HCV pseudoparticles"
  assay_value: "1000 to 5000 nM"
- structure_string: "COCCS(=O)(=O)NC(=O)C(C)(C)CNC(=O)c1ccc(Nc2nc(NC3(c4ccc(Cl)cc4)CC3)nc(OCC(F)(F)F)n2)cc1"
  target: "HCV pseudoparticles"
  assay_value: "0.5 to 100 nM"
- structure_string: "CC(C)(CNC(=O)c1ccc(Nc2nc(NC3(c4ccc(Cl)cc4)CC3)nc(OCC(F)(F)F)n2)cc1)C(=O)N[C@]1(C(=O)NS(=O)(=O)C2CC2)C[C@H]1C1CC1"
  target: "HCV pseudoparticles"
  assay_value: "0.5 to 100 nM"
- structure_string: "CN(C)CCS(=O)(=O)NC(=O)c1ccc(Nc2nc(NC3(c4ccc(Cl)cc4)CC3)nc(OCC(F)(F)F)n2)cc1"
  target: "HCV pseudoparticles"
  assay_value: "0.5 to 100 nM"
- structure_string: "O=C(CCCNC(=O)c1ccc(Nc2nc(NC3(c4ccc(Cl)cc4)CC3)nc(OCC(F)(F)F)n2)cc1)N[C@]1(C(=O)NS(=O)(=O)C2CCC2)C[C@H]1C1CC1"
  target: "HCV pseudoparticles"
  assay_value: "0.5 to 100 nM"
- structure_string: "CS(=O)(=O)NC(=O)CCCCNC(=O)c1ccc(Nc2nc(NC3(c4ccc(Cl)cc4)CC3)nc(OCC(F)(F)F)n2)cc1"
  target: "HCV pseudoparticles"
  assay_value: "0.5 to 100 nM"
- structure_string: "CN(C)S(=O)(=O)NC(=O)c1ccc(Nc2nc(NC3(c4ccc(Cl)cc4)CC3)nc(OCC(F)(F)F)n2)cc1"
  target: "HCV pseudoparticles"
  assay_value: "0.5 to 100 nM"
- structure_string: "CC(=O)NCCS(=O)(=O)NC(=O)c1ccc(Nc2nc(NC3(c4ccc(Cl)cc4)CC3)nc(OCC(F)(F)F)n2)cc1"
  target: "HCV pseudoparticles"
  assay_value: "0.5 to 100 nM"
- structure_string: "O=C(NS(=O)(=O)c1ccc(Nc2nc(NC3(c4ccc(Cl)cc4)CC3)nc(OCC(F)(F)F)n2)cc1)C1(CN2CCCCC2)CC1"
  target: "HCV pseudoparticles"
  assay_value: "100 to 1000 nM"
- structure_string: "CC(C)OC(=O)NCCS(=O)(=O)NC(=O)c1ccc(Nc2nc(NC3(c4ccc(Cl)cc4)CC3)nc(OCC(F)(F)F)n2)cc1"
  target: "HCV pseudoparticles"
  assay_value: "0.5 to 100 nM"

---

# EC50 values compiled below
system: HCV pseudoparticles; assay: HCV pseudoparticle infection assay (luciferase reporter, Huh7 cells); assay type: cell-based, HCV (genotype 1b E1 and E2 envelope); conditions: Hepatitis C virus, genotype 1b, Huh-7, 48 h, HCV pseudoparticles (genotype 1b), luciferase activity 2 days after infection, class

- compound: "O=C(CCCNC(=O)c1ccc(Nc2nc(NC3(c4ccc(Cl)cc4)CC3)nc(OCC(F)(F)F)n2)cc1)N[C@]1(C(=O)NS(=O)(=O)C2CC2)C[C@H]1C1CC1(F)F (stereo partly drawn)"
  EC50: "0.5 to 100 nM"
- compound: "C[C@H](NC(=O)CCCNC(=O)c1ccc(Nc2nc(NC3(c4ccc(Cl)cc4)CC3)nc(OCC(F)(F)F)n2)cc1)C(=O)NS(=O)(=O)C1CCC1"
  EC50: "0.5 to 100 nM"
- compound: "CN(C)CC1(S(=O)(=O)NC(=O)c2ccc(Nc3nc(OCC(F)(F)F)nc(N4CCN(C(=O)OC(C)(C)C)CC4)n3)cc2)CC1"
  EC50: "1000 to 5000 nM"

---

tested on: HCV pseudoparticles; assay: HCV pseudoparticle infection assay (luciferase reporter, Huh7 cells); type: cell-based, HCV (genotype 1b E1 and E2 envelope); conditions: Hepatitis C virus, genotype 1b, Huh-7, 48 h, HCV pseudoparticles (genotype 1b), luciferase activity 2 days after infection, class
EC50 by entry:
recorded_metric: EC50

- structure_string: "CC(C)(C)OC(=O)NCCS(=O)(=O)NC(=O)c1ccc(Nc2nc(NC3(c4ccc(Cl)cn4)CC3)nc(OCC(F)(F)F)n2)cc1"
  target: "HCV pseudoparticles"
  recorded_metric: "EC50"
  assay_value: "0.5 to 100 nM"
- structure_string: "CN(C)S(=O)(=O)NC(=O)CCNC(=O)CCCNC(=O)c1ccc(Nc2nc(NC3(c4ccc(Cl)cc4)CC3)nc(OCC(F)(F)F)n2)cc1"
  target: "HCV pseudoparticles"
  recorded_metric: "EC50"
  assay_value: "0.5 to 100 nM"
- structure_string: "C=C[C@@H]1C[C@]1(NC(=O)C(C)(C)CNC(=O)c1ccc(Nc2nc(NC3(c4ccc(Cl)cc4)CC3)nc(OCC(F)(F)F)n2)cc1)C(=O)NS(=O)(=O)C(C)(C)C"
  target: "HCV pseudoparticles"
  recorded_metric: "EC50"
  assay_value: "0.5 to 100 nM"
- structure_string: "CN(C)S(=O)(=O)NC(=O)CCCCNC(=O)c1ccc(Nc2nc(NC3(c4ccc(Cl)cc4)CC3)nc(OCC(F)(F)F)n2)cc1"
  target: "HCV pseudoparticles"
  recorded_metric: "EC50"
  assay_value: "0.5 to 100 nM"
- structure_string: "CC(C)(C)OC(=O)N1C[C@@H](NC(=O)c2ccc(Nc3nc(NC4(c5ccc(Cl)cc5)CC4)nc(OCC(F)(F)F)n3)cc2)C[C@@H]1C(=O)NS(=O)(=O)C1CC1"
  target: "HCV pseudoparticles"
  recorded_metric: "EC50"
  assay_value: "0.5 to 100 nM"
- structure_string: "CC(C)C(=O)NS(=O)(=O)c1ccc(Nc2nc(NC3(c4ccc(Cl)cc4)CC3)nc(OCC(F)(F)F)n2)cc1"
  target: "HCV pseudoparticles"
  recorded_metric: "EC50"
  assay_value: "1000 to 5000 nM"

---

system: HCV pseudoparticles; assay: HCV pseudoparticle infection assay (luciferase reporter, Huh7 cells); type: cell-based, HCV (genotype 1b E1 and E2 envelope); settings: Hepatitis C virus, genotype 1b, Huh-7, 48 h, HCV pseudoparticles (genotype 1b), luciferase activity 2 days after infection, class
pEC50: −log10 of the molar value.
recorded_metric: pEC50

- structure_string: "CC(C)S(=O)(=O)NC(=O)[C@@H](C)NC(=O)CCCNC(=O)c1ccc(Nc2nc(NC3(c4ccc(Cl)cc4)CC3)nc(OCC(F)(F)F)n2)cc1"
  recorded_metric: "pEC50"
  assay_value: "7.00 to 9.30"
- structure_string: "CN(CC1(S(=O)(=O)NC(=O)c2ccc(Nc3nc(NC4(c5ccc(Cl)cc5)CC4)nc(OCC(F)(F)F)n3)cc2)CC1)C1CC1"
  recorded_metric: "pEC50"
  assay_value: "7.00 to 9.30"
- structure_string: "COCC1(S(=O)(=O)NC(=O)c2ccc(Nc3nc(NC4(c5ccc(Cl)cc5)CC4)nc(OCC(F)(F)F)n3)cc2)CC1"
  recorded_metric: "pEC50"
  assay_value: "7.00 to 9.30"
- structure_string: "O=C(CCN1CCS(=O)(=O)CC1)NCC1(C(=O)NS(=O)(=O)c2ccc(Nc3nc(NC4(c5ccc(Cl)cc5)CC4)nc(OCC(F)(F)F)n3)cc2)CC1"
  recorded_metric: "pEC50"
  assay_value: "5.30 to 6.00"
- structure_string: "O=C(NS(=O)(=O)C1CCCC1)c1ccc(Nc2nc(NC3(c4ccc(Cl)cc4)CC3)nc(OCC(F)(F)F)n2)cc1"
  recorded_metric: "pEC50"
  assay_value: "7.00 to 9.30"
- structure_string: "CN(C)S(=O)(=O)NC(=O)CCCNC(=O)c1ccc(Nc2nc(NC3(c4ccc(Cl)cc4)CC3)nc(OCC(F)(F)F)n2)cc1"
  recorded_metric: "pEC50"
  assay_value: "7.00 to 9.30"
